Tested target: T1, EsCas13d, nuclease-dead (Eubacterium siraeum, UniProt B0MS50, R295A;H300A;R849A;H854A)
T1 sequence: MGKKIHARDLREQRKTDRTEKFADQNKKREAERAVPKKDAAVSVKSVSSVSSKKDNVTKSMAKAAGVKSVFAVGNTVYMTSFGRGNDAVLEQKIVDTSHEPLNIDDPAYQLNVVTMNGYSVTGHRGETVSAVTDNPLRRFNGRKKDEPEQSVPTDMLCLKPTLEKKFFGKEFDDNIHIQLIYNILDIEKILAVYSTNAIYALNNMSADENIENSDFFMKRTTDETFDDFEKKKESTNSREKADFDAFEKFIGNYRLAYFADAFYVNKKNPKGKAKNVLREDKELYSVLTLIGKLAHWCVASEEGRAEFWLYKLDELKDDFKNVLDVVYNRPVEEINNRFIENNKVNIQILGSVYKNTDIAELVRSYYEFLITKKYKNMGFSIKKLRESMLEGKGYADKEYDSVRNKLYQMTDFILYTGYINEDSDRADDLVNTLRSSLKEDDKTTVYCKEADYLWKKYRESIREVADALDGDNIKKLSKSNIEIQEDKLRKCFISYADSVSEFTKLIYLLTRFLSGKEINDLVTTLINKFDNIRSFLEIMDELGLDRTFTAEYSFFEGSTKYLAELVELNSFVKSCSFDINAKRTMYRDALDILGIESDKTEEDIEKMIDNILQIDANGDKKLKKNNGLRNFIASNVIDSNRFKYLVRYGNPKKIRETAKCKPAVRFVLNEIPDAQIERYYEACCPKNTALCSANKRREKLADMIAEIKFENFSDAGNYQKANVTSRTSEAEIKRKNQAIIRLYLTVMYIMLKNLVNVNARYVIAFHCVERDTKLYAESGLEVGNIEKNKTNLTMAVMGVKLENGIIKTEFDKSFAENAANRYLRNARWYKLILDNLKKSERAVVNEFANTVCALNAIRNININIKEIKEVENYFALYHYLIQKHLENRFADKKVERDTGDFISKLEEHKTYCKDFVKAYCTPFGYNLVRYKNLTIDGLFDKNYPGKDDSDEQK
Protocol text: crRNA (strand 1, pre-loaded); Mg2+; 40 mM Tris-HCl pH 7.5, 150 mM NaCl, 6 mM MgCl2, 1 mM DTT, 0.1% Tween-20, 0.2 mg/ml BSA; 25 C; 10 min per concentration, then washed
Experimental setup: tags: His6-TwinStrep-SUMO cleaved; N-terminal SNAP kept (SNAP-Surface 488); label: 3' end held by stalled T7 RNA polymerase
Record form. Attribute: pKd. Fill in for each entry.
FYI, pKd means -log10 of a concentration in mol per litre.

Problem: Which pKd value is on record for target 1 MT 5'PFS UUU 3'PFS AGC (mixed) RNA 1: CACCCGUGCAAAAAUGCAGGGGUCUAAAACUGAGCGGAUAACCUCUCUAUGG RNA 2: GGGAAUGGAUCCACAUCUACGAAUUCUUUCCAUAGAGAGGUUAUCCGCUCAAGCAGAUCGGAAGAGCACACGU ?
Solution: 7.17

Problem: # input binder: target 1 insC 3' of 9,insA 3' of 2 (mixed) RNA 1: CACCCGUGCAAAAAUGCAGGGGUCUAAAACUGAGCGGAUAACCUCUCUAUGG RNA 2: GGGAAUGGAUCCACAUCUACGAAUUCGUACCAUAGAGAGGUUACUCCGCUCAACCGAGAUCGGAAGAGCACACGU ; wanted: its pKd
Solution: 7.91

Problem: Quick check: pKd of target 3 insG 3' of 7,insC 3' of 5 (mixed) RNA 1: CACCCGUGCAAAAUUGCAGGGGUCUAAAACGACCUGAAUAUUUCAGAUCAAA RNA 2: GGGAAUGGAUCCACAUCUACGAAUUCGUUUUUGAUCUGAAAUAUUGCACGGUCUGCAGAUCGGAAGAGCACACGU ?
Solution: 7.61

Problem: Item under review: target 1 C4G,C22A (mixed) RNA 1: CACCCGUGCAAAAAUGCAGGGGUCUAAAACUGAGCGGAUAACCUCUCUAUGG RNA 2: GGGAAUGGAUCCACAUCUACGAAUUCGUAACAUAGAGAGGUUAUCCGGUCACCGAGAUCGGAAGAGCACACGU . Reported pKd?
Solution: 8.23
